Measured values drawn from ChEMBL document CHEMBL3297689 for this set.

- experimentalSystem: RAC-alpha serine/threonine-protein kinase (Homo sapiens, UniProt P31749)
- Sequence (P31749 whole entry): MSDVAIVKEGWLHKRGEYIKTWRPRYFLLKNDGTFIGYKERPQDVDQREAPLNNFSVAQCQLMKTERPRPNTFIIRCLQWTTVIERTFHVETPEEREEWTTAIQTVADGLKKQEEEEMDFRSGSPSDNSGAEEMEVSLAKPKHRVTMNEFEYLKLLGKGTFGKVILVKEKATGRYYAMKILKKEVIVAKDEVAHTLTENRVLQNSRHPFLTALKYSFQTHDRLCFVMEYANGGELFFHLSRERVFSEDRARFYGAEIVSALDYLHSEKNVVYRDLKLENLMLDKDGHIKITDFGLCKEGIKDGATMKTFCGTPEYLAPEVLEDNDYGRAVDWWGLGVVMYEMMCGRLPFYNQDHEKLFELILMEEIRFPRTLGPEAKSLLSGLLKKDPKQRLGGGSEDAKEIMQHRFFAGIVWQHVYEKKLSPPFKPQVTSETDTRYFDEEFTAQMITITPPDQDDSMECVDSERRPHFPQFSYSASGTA
- assayProtocol: Inhibition of AKT1 (unknown origin) after 1 hr by Z'-LYTE kinase assay in presence of 75 uM ATP
metric: IC50 (µM)

CC(C)(C)OC(=O)N[C@@H](Cc1ccccc1)C(=O)NCCN1C(=O)C=CC1=O = 4.48

1. C=CC(=O)[C@H](Cc1ccccc1)NC(=O)OC(C)(C)C
2. CC(C)(C)OC(=O)NN(Cc1ccccc1)C(=O)CN1C(=O)C=CC1=O
3. CC(C)(C)OC(=O)NN(Cc1ccccc1)C(=O)CI
4. CC(C)(C)OC(=O)NN(Cc1ccccc1)C(=O)CBr
query: Reorder: IC50, max to min. Show the ranking through the labels, in the order asked for.
result: 4, 3, 2, 1
(4: 24.7 µM, 3: 16.1 µM, 2: 4.68 µM, 1: 0.58 µM)
